pKd: recorded values
Biological target: T1, PD-L1 Protein, Human, Recombinant (His Tag) (human, UniProt Q9NZQ7 19-239)
T1 construct: Bought protein; also called QPP09.1; SinoBiologic 10084-H08H
T1 sequence (Q9NZQ7 19-239 limits assumed): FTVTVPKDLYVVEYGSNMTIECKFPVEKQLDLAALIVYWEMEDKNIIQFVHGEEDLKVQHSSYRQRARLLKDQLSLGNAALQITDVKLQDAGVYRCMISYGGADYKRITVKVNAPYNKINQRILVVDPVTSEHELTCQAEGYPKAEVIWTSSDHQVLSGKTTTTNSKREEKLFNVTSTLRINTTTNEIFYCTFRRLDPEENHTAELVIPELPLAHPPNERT
Assay: SPR Biacore T200, antibody captured, PD-L1 His as analyte, 1:1 binding
pKd: −log10 of the molar value.

[
  {
    "BINDER": "QP1162 (Fc fusion, Chimeric antibody before humanization; also called QD1162; nanobody QP1162; not shown: Fc part: called chimeric antibody, cloned in vector VH-FC-pQD) QVQLVESGGGSVQSGGSLRLSCAASGFTYGTYAMSWFRQAPGKEREGVACIDIYGRASYTDPVKGRFTISQDNAKNTLYLQMNSLKPEDTAMYYCAARDFGYCTASWVHEGFSRYWGQGTQVTVSS",
    "pKd": 8.56
  },
  {
    "BINDER": "QP322 (Fc fusion, Humanization design of QP1162; VHH at the N-terminal of FC; also called 1162-V3; QD322; not shown: human IgG1-FC constant region fused to the C terminal of the VHH) EVQLLESGGGLVQPGGSLRLSCAASGFTYGTYAMSWFRQAPGKGREGVACIDIYGRASYTDPVKGRFTISQDNSKNTLYLQMNSLKAEDTAVYYCAARDFGYCTASWVHEGFSRYWGQGTLVTVSS",
    "pKd": 8.63
  },
  {
    "BINDER": "QP325 (Fc fusion, Humanization design of QP1166; VHH-Fc; also called 1166-V3; QD325; not shown: human IgG1-FC constant region fused to the C terminal of the VHH) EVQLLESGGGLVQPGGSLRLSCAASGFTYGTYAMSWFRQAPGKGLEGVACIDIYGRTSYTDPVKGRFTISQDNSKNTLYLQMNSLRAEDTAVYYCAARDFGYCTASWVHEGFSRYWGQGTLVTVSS",
    "pKd": 7.97
  },
  {
    "BINDER": "QP1166 (Fc fusion, Chimeric antibody before humanization; also called QD1166; nanobody QP1166; not shown: Fc part: called chimeric antibody, cloned in vector VH-FC-pQD) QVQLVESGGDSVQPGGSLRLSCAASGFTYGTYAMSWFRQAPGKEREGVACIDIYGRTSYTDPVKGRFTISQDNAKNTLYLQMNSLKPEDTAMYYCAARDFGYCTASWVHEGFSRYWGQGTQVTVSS",
    "pKd": 8.58
  }
]
